Activity reference
MEASURED_TARGET: Melanocortin receptor 4 (Homo sapiens)
Sequence (P32245 whole entry): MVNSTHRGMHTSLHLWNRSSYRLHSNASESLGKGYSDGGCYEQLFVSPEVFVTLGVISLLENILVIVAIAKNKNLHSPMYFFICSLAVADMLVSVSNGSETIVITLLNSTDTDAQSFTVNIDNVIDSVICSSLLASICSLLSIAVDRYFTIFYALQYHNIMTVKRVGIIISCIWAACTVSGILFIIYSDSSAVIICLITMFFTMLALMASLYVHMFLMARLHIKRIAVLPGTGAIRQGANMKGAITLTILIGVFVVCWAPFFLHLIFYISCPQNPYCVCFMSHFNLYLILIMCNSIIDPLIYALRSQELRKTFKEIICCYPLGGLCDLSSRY
PROTOCOL_TEXT: Agonist activity at human MC4R expressed in high doxycyclin-treated HEK293 cell membranes assessed as increase in cAMP production after 15 mins by HTRF method
Format: functional, cell-based
Where a SMILES comes first, the peptide text is derived from it. Bridges are numbered along the chain shown (N, C = ends). [ ]: non-standard residue; d: D form. NMeW = CN[C@@H](Cc1c[nH]c2ccccc12)C(=O)O
Kindly answer with a numeric value in %, unit omitted.

Please review the following examples before continuing.
CC[C@H](C)[C@@H]1NC(=O)[C@@H]2CCCN2C(=O)[C@@H]2CCCN2C(=O)[C@H]([C@@H](C)CC)NC(=O)[C@H](CO)NC(=O)[C@H](C)NC(=O)[C@H]([C@H](C)O)NC(=O)[C@@H]2CSSC[C@H](NC1=O)C(=O)N[C@@H](Cc1cnc[nH]1)C(=O)N[C@H](Cc1ccccc1)C(=O)N(C)[C@@H](CCCNC(=N)N)C(=O)N[C@@H](Cc1c[nH]c3ccccc13)C(=O)N[C@@H](CCCNC(=N)N)C(=O)N2 : 100
CC[C@H](C)[C@@H]1NC(=O)[C@@H]2CCCN2C(=O)[C@H](Cc2c[nH]c3ccccc23)N(C)C(=O)[C@H](CCCNC(=N)N)NC(=O)[C@@H](Cc2ccccc2)NC(=O)[C@H](Cc2cnc[nH]2)NC(=O)[C@H]([C@@H](C)O)NC(=O)[C@@H]2CSSC[C@H](NC1=O)C(=O)N[C@@H](Cc1ccccc1)C(=O)N1CCC[C@H]1C(=O)N[C@@H](CC(=O)O)C(=O)NCC(=O)N[C@@H](CCCNC(=N)N)C(=O)N2 (cyclo(CFPDGRCTH[dF]R[NMeW]PI); disulfide 1-7) : 100

We now examine a further compound.
// recorded Activity for `CC[C@H](C)[C@@H]1NC(=O)[C@@H]2CCCN2C(=O)[C@H](Cc2c[nH]c3ccccc23)NC(=O)[C@H](CCCNC(=N)N)NC(=O)[C@@H](Cc2ccccc2)NC(=O)[C@H](Cc2cnc[nH]2)N(C)C(=O)[C@H]([C@@H](C)O)NC(=O)[C@@H]2CSSC[C@H](NC1=O)C(=O)N[C@@H](Cc1ccccc1)C(=O)N1CCC[C@H]1C(=O)N[C@@H](CC(=O)O)C(=O)NCC(=O)N[C@@H](CCCNC(=N)N)C(=O)N2` : 100
